Overview of recorded CC50 at 3 days for various molecules
test: Cell viability by CellTiter-Glo 2.0 (intracellular ATP) in HepG2.117 cells; assay type: cell-based; details: human, CellTiter-Glo 2.0, 3 days incubation

For orientation, consider the following solved cases.
CNC(=O)c1ccc(-n2c(NCc3ccccc3-c3ccccn3)nc3c(c2=O)C[C@@H](C)N(C(=O)c2ccc(Br)c(C(F)(F)F)c2)C3)c(Cl)c1 (single isomer, unassigned) ... > 50 µM
CNC(=O)c1ccc(-n2c(-n3ccc(C(C)C)n3)nc3c(c2=O)C[C@@H](C)N(C(=O)c2ccc(Br)c(C(F)(F)F)c2)C3)cc1 ... > 50 µM

--- query ---
The reported CC50 at 3 days of the molecule CCc1ccn(-c2nc3c(c(=O)n2-c2ccc(C(=O)NC)cc2)C[C@@H](C)N(C(=O)c2ccc(Br)c(C(F)(F)F)c2)C3)n1 was > 50 µM
